- Read-out: Interleukin-8 (IL8), CXCL8 (gene 3576)
- ASSAY_DETAILS: BSK_SAg_IL8: BioMAP Diversity Plus: SAg Assay for Interleukin-8 (IL8) Biomarker Activity (AID 2283094)
- CONDITIONS_USED: primary human HUVEC with PBMC; actives raise or lower the signal
Active and inactive are the calls of the source. Rule for the calls: active = hit-call score of the fitted dose curve at least 0.9, where 1 is the maximum; inactive = score below 0.9.
Possible outcomes: yes (1) = active, no (0) = inactive

> print(dat)
                                smiles.input  group.label
 1                        [Cl-].[Cl-].[Hg+2]       no (0)
 2            CCCCCOC(=O)c1ccccc1C(=O)OCCCCC      yes (1)
 3  CO[C@@H]1[C@H](OC(=O)NC(=O)CCl)CC[C@]2(CO2)[C@H]1[C@@]1(C)O[C@@H]1CC=C(C)C      yes (1)
 4                   O=C(Nc1ccccc1)c1ccccc1I       no (0)
 5      CCC[CH2][Sn]([Cl])([CH2]CCC)[CH2]CCC      yes (1)
 6  COc1cc(C=O)cc2c1[C@H](COC(N)=O)[C@]1(OC(C)=O)ON2C[C@H]2[C@@H]1N2C(C)=O      yes (1)
 7                          COC(=O)c1ccccc1N       no (0)
 8                  Cc1cc(N=Nc2ccccc2C)ccc1N      yes (1)
 9                    Nc1ccc(N=Nc2ccccc2)cc1       no (0)
10            CC(C)N(Cc1ccccc1)C(=O)C(C)(C)C       no (0)
11                   Nc1ccc(Oc2ccc(N)cc2)cc1       no (0)
12                       C=CCc1ccc2c(c1)OCO2       no (0)
13               CNC(=O)Oc1cccc2c1OC(C)(C)C2       no (0)
14                              Cc1ccc(N)cc1       no (0)
15                                     OCCCl       no (0)
16                            CCC12COCN1COC2       no (0)
17           O=C(Oc1ccc(Br)cc1)N1CCN2CCC1CC2       no (0)

---

- Read-out: solute carrier (SLC22A1), SLC22A1 (gene 6580)
- ASSAY_DETAILS: LTEA_HepaRG_SLC22A1: Life Technologies and Expression Analysis (LTEA) Assay for solute carrier (SLC22A1) using HepaRG (AID 2283524)
- CONDITIONS_USED: mRNA level, 48 h; actives raise or lower the signal
- Experimental: LTEA_HepaRG is a cell based, multiplexed-readout assay that uses HepaRG, a human liver cell line, with measurements taken at 48 hours after chemical dosing on a 96-well plate.LTEA_HepaRG_SLC22A1 is one of 102 assay component(s) measured in the LTEA HepaRG cell culture assay. It is a marker of NR mediated transport.Data from the assay component LTEA_HepaRG_SLC22A1 was analyzed into 1 endpoint. […]
Active and inactive are the calls of the source. The calls were made as follows: active = hit-call score of the fitted dose curve at least 0.9, where 1 is the maximum; inactive = score below 0.9.
VALUE_KIND: outcome

> print(dat)
                                    compound    result
 1  Cn1cc(-c2ccccc2)c(=O)c(-c2cccc(C(F)(F)F)c2)c1  inactive
 2                     c1ccc2c(c1)oc1ccccc12  inactive
 3                          COC(=O)c1ccccc1N  inactive
 4  CCCCC(CC)COC(=O)c1ccc(C(=O)OCC(CC)CCCC)c(C(=O)OCC(CC)CCCC)c1 (stereo not given)  inactive
 5        c1ccc(C2CO2)cc1 (stereo not given)  inactive
 6               CC(O)CCO (stereo not given)  inactive
 7               CNC(=O)Oc1cccc2c1OC(C)(C)C2  inactive
 8  CO[C@@H]1[C@H](OC(=O)NC(=O)CCl)CC[C@]2(CO2)[C@H]1[C@@]1(C)O[C@@H]1CC=C(C)C  inactive
 9                               Oc1ccccc1Cl  inactive
10          COP(=S)(OC)SCN1C(=O)c2ccccc2C1=O  inactive

These entries and their values trace back to PubChem BioAssay (EPA / NIEHS).
